Molecular target: HMGB1 (Homo sapiens, UniProt P09429)
Construct: full-length, expressed in and purified from human HEK293 cells; self-associates into oligomers
Experiment: SPR, inhibition of free HMGB1 binding to chip-anchored HMGB1
Conditions: 100 mM Hepes, 50 mM NaCl; 25 °C; HMGB1 self-association

# COMPOUND, IC50 [µM]
rows = [
    ("O=P(O)(O)OC[C@H]1OC(O)(COP(=O)(O)O)[C@@H](O)[C@@H]1O (stereo partly shown)", 12.7),
]

----------
Molecular target: HMGB1 (Homo sapiens, UniProt P09429)
Construct: full-length, expressed in and purified from human HEK293 cells; self-associates into oligomers
Sequence (P09429 1-215): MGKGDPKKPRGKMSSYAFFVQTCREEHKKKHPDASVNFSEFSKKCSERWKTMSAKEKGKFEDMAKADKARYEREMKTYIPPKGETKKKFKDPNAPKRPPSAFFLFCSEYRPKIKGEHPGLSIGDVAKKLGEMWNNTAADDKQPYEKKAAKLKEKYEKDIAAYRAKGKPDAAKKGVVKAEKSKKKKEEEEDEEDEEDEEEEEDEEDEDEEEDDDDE
Assay: SPR, inhibition of free HMGB1 binding to chip-anchored DNA
Details: 100 mM Hepes, 50 mM NaCl; 25 °C; unmodified DNA

# MOLECULE, STUDY TARGET, UNIT ABBREVIATION, IC50
measured = [
    ("O=P(O)(O)OC[C@H]1OC(O)(COP(=O)(O)O)[C@@H](O)[C@@H]1O (stereo partly shown)", "HMGB1 (Homo sapiens, UniProt P09429)", "µM", 14.1),
]
